Reference source for all entries: the domain aggregation screens of Martell et al. (2025)

Assay: soluble fraction after stress (log2 fold change); higher = more stays soluble; pooled small domains, quantitative proteomics
Conditions: stress: 50 degC
quantity: soluble fraction (log2)
// return a plain number; no unit text

Noted for `HMEPVQFIQFKIPDGHPWSGQLLREVRLPPGTLVVLLKHDGKNIIPNGETPLLAGDSVILSAASPT` : its soluble fraction (log2) reads -0.197

The sequence listed as `HMQVEYTRGELLQDLKEENVLYATITPSRETPTGEVDFVFKDKSIKTLYVTDVSEIEGLLMDYGIDPEVKK` has a reported soluble fraction (log2) of -0.0511

Noted for `HMGASYSQFLDQVDSGNVQKVAFGGDMRGGTSQLTYTTRGGQSSTITAPFDRDLINVLRTKNVEIVQEEP` : its soluble fraction (log2) reads 0.139

soluble fraction (log2) reported for this sequence `HMSESGTFRAEAADAGRRLDVALAERLRLSRAAAQRLIAAGLVLVEGSPARKRQILHAGETVAWRAAPP` : -0.127

###

Assign soluble fraction (log2) to each entry below.
Assay: soluble fraction after stress (log2 fold change); higher = more stays soluble; pooled small domains, quantitative proteomics
Conditions: stress: 50 degC
Give the figure by itself; no unit, no explanation.

Record summary for `HMPLITLSAEIQSEQIGQRLDQTLAELFPEYSRSRLKTWIEADLVKLNNQIVNIPREKVLGGEHVEITVDI` : reported soluble fraction (log2) = -0.611

The sequence identified as `HMAKDDFMSFVKAVWPEFIEGAHHRVIAQKFNDLATGKITRLIVNMPPRHTKSEFASYLLPAW` registered its soluble fraction (log2) at 0.107

Recorded soluble fraction (log2) (sequence `HMSTEPLALVGKTGIAATVLRPSGRIEVDDKYYDAVSLGAFIEKGEMVNIVKYENLQLYVAKL` ): -0.0644

The sequence `HMNIKYDFPTNSPLEMMRNLFDSNSQIINDLKDGFAMANSLNEQGLANFFAERIDKHQFWSWQLSASL` showed soluble fraction (log2) equal to -0.399

###

Assign soluble fraction (log2) to each entry below.
Assay: soluble fraction after stress (log2 fold change); higher = more stays soluble; pooled small domains, quantitative proteomics
Settings: stress: 50 degC
No unit in the answer, please; the number alone is enough.

Record `HMAGGVFELTGKVTADAKAGDLVYVKAATGAGTKPVVTTVKTGADVIIGWLKEPVSSASVDQKMQVVLA` , field soluble fraction (log2): 0.147

Just so you know, measured soluble fraction (log2) for `HMEITGKYKAKEDIKLKVIPLISSLDLQDIKQNTELEVKDTMNNWAYVTVQEKQGWVVLEKIEKVE` came out at -0.0549

The sequence listed as `HMKIVQDIAFSDFLNEVEKDNVLDVNIKGDLINGNLADGRKFKTYTPYDPNLIEKLSNKNVTINVEPYN` shows soluble fraction (log2) equal to 0.198

# sequence `HMAVPLVRGTVTSSVGTVLLLSVGERDFFLSEGEEKDGVLLQSLSEKSAVVVVSGRAYTLSL` ; its soluble fraction (log2) = -0.408

The sequence `HMSLPAYIKISEVIARRINAGQILAGDRLPNERTMAVEFGVAVGTLRKALYHLQVRGLVTRKHGSGNYINK` showed soluble fraction (log2) equal to -0.177

Field soluble fraction (log2) (entry `HMGPPAVGAKLQVLRQARKLSLDELSRRAGVSKSMLSQVERNLANPTVAVLWRLATALGVGLADFLSP` ) reads -1.39

// `HMGFYDLFINLADKVGSLADVTQILAEARINLVNVHILEIREEIDGIAQLTFSSEKDRQKALELLKTKYK` : soluble fraction (log2) value = -1.33

Briefly, soluble fraction (log2) measured for `HMEDVRSLTGPEKAAIILLSLGEEHGQGVWRMFDDEEVKEVSQIMANLGTISASVVEKLLVEFVSQMST` : -0.873

In plain terms, `HMLNLNEAEKSIYVLIKKNESNNLNKVKEDSNLSNKAWDKGIKNLVKNNLVKVVKSNEGLFIQLV` has a documented soluble fraction (log2) of -0.345

The recorded soluble fraction (log2) for `HMLDQAVPVFETPKYAVSYIQNRLVEMKAASPEEAASRFYESISESERRGLFEALLIKEAEES` is -0.00154

The sequence listed as `HMLQGKVSFFNDEKGYGFIKDNNSKDSYFVHINKVEGEIAEGDKVTFELEKGPKGLVAANVKR` shows soluble fraction (log2) equal to 0.184

Value of measured soluble fraction (log2) for the entry `HMKYKWLAGQLRRELLENGGKKGYKLPTELELARRYQLSRQTVRRALQLLEEEGLILRRQGSGAYATGKPP` : -0.316

The recorded soluble fraction (log2) for `HMNTKLKPLYLLDIFREMTDERHRMTVPELLEELQRRGITAERKGIYRDIDALIQYGADIKHTGTGYYLAR` is -0.561

Measured soluble fraction (log2) of `HMKYLREEDYLPIGSIIRLDDRNFRVDHVNFMFKSVSLQDMDLTNSGQPIFRSESLPHIRELYEQQQNELV` : -1.19

Memo: `HMEQFDFTILRELRKRAGLSIGEVSAESGVSAAVISKLERNRTRAELDTLYRLARVFGITAAELLNLAEA` , reported soluble fraction (log2): -2.06

// soluble fraction (log2) value for `HMNSSLLGKRIKSLREDHDLTQKELSLMIGLTPKMISFYENNQRTPPLDILLKLAKIFEVSVDYLIGYA` : -0.551

Entry `HMSSRNLIIFYDSPQAENALLATAERYGAILLHHYRNLHGIAVAIPADKDMAQAVTYFSRQPGVRQV` ; soluble fraction (log2) = -0.803

###

Please go through the items and note down their soluble fraction (log2).
Experiment: soluble fraction after stress (log2 fold change); higher = more stays soluble; pooled small domains, quantitative proteomics
Conditions: stress: 50 degC

// recorded soluble fraction (log2) for `HMLNIVTIFEEQFGRPLSPIELNIIKDWKESDYSDEMIVKALKEAVKSQVLNFRYVEGILNNWAKNG` : -0.568

The recorded soluble fraction (log2) for entry `HMSDPELNDNEKKIYDIIFNKKSMDLTELKNLSELSNKQWDKGIKSLSKQDFVKVIKTEEALIVELV` equals -0.302

soluble fraction (log2) measured on `HMSGVIVPDIYNKTLAEAVASLEGEGFSTEKKEGYSDTVPKGNVMSQKPEAGTSAERGSTVTITISQGPQ` = -0.0107

Measured soluble fraction (log2) of `HMSSKSDQLYLQLRRRISAMKDGEPFPTVRQLMTEYQVSQSTVTPAINQLKEKGLIEAYVGRGSFVSKK` : -0.615

Lookup result for `HMTDFNTFSDAIIAAVGSRASGLKVVDNAVSVMVDVSGLNEDQRVEIEADVRAAAEHAGAQSVRIMLT` ; measured soluble fraction (log2): -0.438

Looking up `HMPAMYKAERMNQILSILADQGDVDVGTLARQFGVSLVTIRKDLTYLESSGQLVRTHGGAIAVA` , I found its soluble fraction (log2) recorded as -0.767

Form field soluble fraction (log2), entry `HMNFMDGFQSFFQESGAMNRPMTADVVSYRLPDGTVQQGNSTMRGLMDQYLKSIGQSPTTGVP` : 0.00775

The measured soluble fraction (log2) associated with `HMKLIPLTDMRGQLRSGAPLPWGVRDAQGNLLLGKGHVIASDDMLEALLARGMFVDAEEAKAARG` reads 0.00271

###

Assay: soluble fraction after stress (log2 fold change); higher = more stays soluble; pooled small domains, quantitative proteomics
Conditions: stress: 50 degC
quantity: soluble fraction (log2)

`HMENPVPVIITDQNFQPLLWKNVGVPTDTIFHELSPENQKKLENLMKTMVQMPLTDDGRISGYAYYSK` has a reported soluble fraction (log2) of -0.195

The sequence identified as `HMVSTSVTVTGDLNVRADSRADSDLVGALIPGQTVTRLAVLDNGWSKIRFDDGAGTVVEGYVLSEYLQADG` registered its soluble fraction (log2) at 0.0817

Reported soluble fraction (log2) for `HMNIKITKSKNSEHYSIIYNTKINGKRTSKIYENIGNFEKLKLRAGEQEPIEWLKNYVSELNKKQKEDT` was 0.109

`HMIGPYAAAKLMTNKDFVKWLSGGVEKSVFNPNSFGQHIRRLVQISEVNPDIRDEINAVVQGLTQ` yielded soluble fraction (log2) of -0.361

Form field soluble fraction (log2), entry `HMSWNIHEAVEYYKGQDAPQNQFALVELLKEVQEHNGGVLTDIAVEEIAALLNTKVTFLNAVIKRYPSLK` : -0.287

Entry `HMEDKFEYQGELKSLIEPTSFSELVSALNVRDTLQAIIDFAMREEDTSGYEELKVRQNDYIQEYLNSIGNF` — recorded soluble fraction (log2) = -1.04

Recorded soluble fraction (log2) (sequence `HMRMETRILTADESGIRLDAFLASRLAVSRSLAASLIDDGNVTLNGTVPKKKTAVNVGDILEVAMP` ): -0.234

Record `HMLLQENRKLHSKLEELQLISRAKAVLIEYLKLTEPQAHRYIEKQAMDLGLTRPQVALNILKTYE` , field soluble fraction (log2): -0.202

Documented soluble fraction (log2) of `HMTPNATWQDDAQSLLRDLIQHQPVLIQISAAKRLRDQAEQISRITGGDTVTRDHVEAAGHALGMGVT` : 0.0517

// `HMSDIIVQGNRRLDTDLIITDSQIREIGTDEKSLSLAVKNLYKTGYFENVQIFKDNSVVFINVKENQ` : soluble fraction (log2) value = -0.103

For record `HMNYYYKDNQYWYVGFRYDERLVKEIKRFVGAGYNPENKEWYIPFTLPTVAPLQKWLHDNGFVEGMNYYP` the listed soluble fraction (log2) is -1.86

Entry `HMAAPLTDRETEVLTLLARGLINKQIAEELHIGLTTVITHRRNIMEKLRVRSLAELILRAVAAGYVDAGR` — recorded soluble fraction (log2) = -1.77

Data point: `HMVSLLDWAYKQVRRMLFSGDLPQGQKIVVAQLANQLSISPTPVKEALNRLAVEGLLEAVPRRGFQVR` ; soluble fraction (log2) = -0.229

In plain terms, `HMGMAQELMESRLTAVFTSGKDQLAVLQRKDGSTLKLGADSKPWRIESFDGRKAVFVSADQQRVERLL` has a documented soluble fraction (log2) of -0.209

Reported soluble fraction (log2) for `HMGKTIIQLATDYLIKNMQPKSLHDIESYVLTRKKIKKSSIGAILLSKPNIFGRTEDGLFGLRIWNNFQYT` was -0.738

The sequence identified as `HMIYKLTLLRDLPEAKAGFDFYLRGGLASHDGEEWFSWVTREPIYARLYWLYVEKREEWVLVEETDI` registered its soluble fraction (log2) at -4.46

Recorded result, `HMFYNSSDNAYKILEINKSATVDEIKAAYRKMAKKYHPDKVIHLGQEHQKGAEEKFRQVQEAYEELQKERG` , soluble fraction (log2): 0.0887
